- tested_system: dopamine beta-hydroxylase (Bos taurus, UniProt P15101)
- Sequence (P15101 1-610): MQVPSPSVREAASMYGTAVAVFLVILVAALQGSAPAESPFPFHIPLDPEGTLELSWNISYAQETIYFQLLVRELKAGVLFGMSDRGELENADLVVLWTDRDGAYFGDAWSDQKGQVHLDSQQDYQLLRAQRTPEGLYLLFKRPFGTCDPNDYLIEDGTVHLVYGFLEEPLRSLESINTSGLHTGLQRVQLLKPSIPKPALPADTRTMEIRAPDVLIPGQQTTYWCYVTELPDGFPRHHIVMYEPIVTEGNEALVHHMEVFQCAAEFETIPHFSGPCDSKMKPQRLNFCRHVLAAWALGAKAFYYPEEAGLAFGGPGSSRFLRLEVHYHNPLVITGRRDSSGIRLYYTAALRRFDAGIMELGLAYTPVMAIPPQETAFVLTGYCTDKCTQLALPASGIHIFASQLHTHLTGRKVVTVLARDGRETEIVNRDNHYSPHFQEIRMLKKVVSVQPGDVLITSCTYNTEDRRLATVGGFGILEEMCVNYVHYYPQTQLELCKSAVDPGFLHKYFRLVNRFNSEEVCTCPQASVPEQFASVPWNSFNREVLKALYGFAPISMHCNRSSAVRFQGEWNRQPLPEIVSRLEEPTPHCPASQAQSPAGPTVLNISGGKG
- assay_notes: in vitro DBH inhibition (conversion of tyramine to octopamine; oxygen uptake by polarographic electrode)
- Assay type: biochemical
- experimental_setup: pH of 5, 37° C. preferably
pIC50: −log10 of the molar value.
observable: pIC50

A = NC(=S)c1nccn1Cc1cccs1
B = NCc1nccn1Cc1cccs1
Task: Endpoint returns the identifier whose pIC50 is numerically larger, either A or B . // output: label of the selected item
Result: A
(A: 5.33, B: 4.89)
